The values you see were collected from the EternaBench riboswitch data.

# Tested on: MS2 coat protein
# experimental_protocol: apparent Kd, MS2 coat protein; higher = weaker binding; RNA-MaP array
# condition_info: designed as: OFF switch for theophylline; no ligand
parameter: apparent Kd

[[record]]
sequence_string = "UGGUAGCCACACUUCAAACAUCGACAAGAUACCAGUUAAUCAACGAACCCUUGGCAGCUUCGUACAUGAGGAUCACCCAUGUGGA"
target_desc = "MS2 coat protein"
value_observed = "18.2 nM"

[[record]]
sequence_string = "CAAGCACCAACCGAUACCAGCUUAGUAGUAUGCUCAUUAAACAUGAGGAUCACCCAUGUGAGCCCUUGGCAGCGGAUUUCCCUGC"
target_desc = "MS2 coat protein"
value_observed = "13.3 nM"

[[record]]
sequence_string = "GAUUGCAUCGAUUCUCCACUCGCACCUGAUACCAGCGAUAGAAUUCGCCCUUGGCAGCAGUACACAUGAGGAUCACCCAUGUUAU"
target_desc = "MS2 coat protein"
value_observed = "30.7 nM"

[[record]]
sequence_string = "CAUGGGCUAAGACAUUAUUCGUAUUUUGAUACCAGAAAAUUGGCGUUCCCUUGGCAGCAAUAUACAUGAGGAUCACCCAUGUCCC"
target_desc = "MS2 coat protein"
value_observed = "80.6 nM"


----------
Property: apparent Kd; scope: individual sequences
# Test system: MS2 coat protein
# experimental_protocol: apparent Kd, MS2 coat protein; higher = weaker binding; RNA-MaP array; FMN 200 µM where present
# condition_info: designed as: OFF switch for flavin mononucleotide; no ligand
parameter: apparent Kd (nM)

[[record]]
sequence_string = "AAGAACUAAGGAUAUACAUGAGGAUCACCCAUGUCUUUUACAUGUUACUGGCCCGCAUGUAGAAGGUAGAAAAG"
target_desc = "MS2 coat protein"
parameter = "apparent Kd"
value_observed = 78.6

[[record]]
sequence_string = "AAUCCACAUGAGGAUCACCCAUGUCAGGAUAUCGCGCGCGCGUUUUCGGUCUUGCGCGCGAGAAGGGACGGCUG"
target_desc = "MS2 coat protein"
parameter = "apparent Kd"
value_observed = 26.2

[[record]]
sequence_string = "UGAUAGGACAGAGGAUAUACGUGCUAGAGAUACUAGCAAAAUUAAAUAACAUGAGGAUCACCCAUGUAGAAGGCUGUCCUAUCU"
target_desc = "MS2 coat protein"
parameter = "apparent Kd"
value_observed = 5.01

[[record]]
sequence_string = "GGAAGGUGAGGAUAUACAAUGACGGAAACGUCAGGUGAGAGACAUGAGGAUCACCCAUGUAGAAGGCACGGAGA"
target_desc = "MS2 coat protein"
parameter = "apparent Kd"
value_observed = 73.7

[[record]]
sequence_string = "ACAAAGUGAGGAUAUGCUUUUAUUUAUUAUUAUUAUUAUUUGCAGAAGGCACAUGAGGAUCACCCAUGUAAGAA"
target_desc = "MS2 coat protein"
parameter = "apparent Kd"
value_observed = 32.9

[[record]]
sequence_string = "UAUGCCUUUGUGAGGAUAUACUUUGUUUGGUCGUAGUAGAAGGCACAUGAGGAUCACCCAUGUAGAUUUUUGGU"
target_desc = "MS2 coat protein"
parameter = "apparent Kd"
value_observed = 27.5

[[record]]
sequence_string = "UGCUAGGACCUAGGAUAUCCUGGGUUGGUGGUGCUUGAUGACCGGACAUGAGGAUCACCCAUGUAGGAGAAGGAGGUUGUUAAG"
target_desc = "MS2 coat protein"
parameter = "apparent Kd"
value_observed = 61.2

